target: Androgen Receptor (AR) protein (Homo sapiens, UniProt P10275, T878A); construct: endogenous in cells; host or cells: LNCaP; assay: Androgen Receptor (AR) protein degradation assay in LNCaP cells, western blotting; type: cell-based; conditions: 20 h, 0.1 μM compound
Sequence (P10275 whole entry T878A): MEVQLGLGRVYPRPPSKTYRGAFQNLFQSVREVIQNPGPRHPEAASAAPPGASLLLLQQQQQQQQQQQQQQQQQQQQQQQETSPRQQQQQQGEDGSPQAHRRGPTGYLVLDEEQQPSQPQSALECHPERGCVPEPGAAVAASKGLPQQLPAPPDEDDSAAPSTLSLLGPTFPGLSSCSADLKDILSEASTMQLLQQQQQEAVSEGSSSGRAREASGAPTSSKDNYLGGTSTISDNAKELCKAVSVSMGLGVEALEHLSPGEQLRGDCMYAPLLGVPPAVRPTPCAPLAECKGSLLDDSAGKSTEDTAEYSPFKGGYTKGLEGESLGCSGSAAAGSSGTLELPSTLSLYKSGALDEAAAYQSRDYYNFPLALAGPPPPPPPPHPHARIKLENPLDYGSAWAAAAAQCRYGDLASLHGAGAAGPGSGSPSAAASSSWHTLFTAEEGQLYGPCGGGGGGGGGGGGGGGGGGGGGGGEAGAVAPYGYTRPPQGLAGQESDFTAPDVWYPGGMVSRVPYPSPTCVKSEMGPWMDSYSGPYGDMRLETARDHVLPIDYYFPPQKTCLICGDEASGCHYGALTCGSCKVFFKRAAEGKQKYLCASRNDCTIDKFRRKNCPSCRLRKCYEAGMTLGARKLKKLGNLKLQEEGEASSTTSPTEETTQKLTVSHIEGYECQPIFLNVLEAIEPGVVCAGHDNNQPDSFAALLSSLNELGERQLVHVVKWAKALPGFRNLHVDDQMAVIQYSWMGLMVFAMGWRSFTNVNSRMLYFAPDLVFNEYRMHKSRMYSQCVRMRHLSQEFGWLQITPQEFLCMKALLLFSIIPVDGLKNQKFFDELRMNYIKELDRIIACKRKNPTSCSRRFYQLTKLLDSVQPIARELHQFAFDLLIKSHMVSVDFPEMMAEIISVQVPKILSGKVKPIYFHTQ
Sequence (Q96SW2 whole entry partner): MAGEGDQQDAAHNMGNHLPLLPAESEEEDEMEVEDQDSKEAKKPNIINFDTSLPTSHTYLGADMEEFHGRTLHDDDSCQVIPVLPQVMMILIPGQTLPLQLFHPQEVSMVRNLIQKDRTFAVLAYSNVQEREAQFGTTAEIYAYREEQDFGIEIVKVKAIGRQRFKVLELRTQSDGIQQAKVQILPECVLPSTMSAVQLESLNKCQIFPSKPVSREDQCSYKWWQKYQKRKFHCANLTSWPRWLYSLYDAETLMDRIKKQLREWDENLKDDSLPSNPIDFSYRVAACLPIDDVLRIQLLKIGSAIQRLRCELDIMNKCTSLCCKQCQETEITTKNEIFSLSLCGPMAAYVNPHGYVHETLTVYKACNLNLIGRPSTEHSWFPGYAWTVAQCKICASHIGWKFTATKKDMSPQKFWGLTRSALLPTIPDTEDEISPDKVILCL
Entries and their measured inhibition at 0.1 µM follow.
quantity: inhibition at 0.1 µM

>>> result("N#Cc1ncc(N2CCC(C(=O)Nc3ccc(N4CCC(CN5CCN(C6CCN(c7ccc8c(c7)C(=O)N(C7CCC(=O)NC7=O)C8=O)CC6)CC5)CC4)cn3)CC2)cc1C(F)(F)F (stereo not drawn)")
"88%"
>>> result("N#Cc1ccc(N2CCC(C(=O)Nc3ccc(N4CCC(CN5CCN(C[C@@H]6CCN(c7ccc8c(n7)CN(C7CCC(=O)NC7=O)C8=O)C6)CC5)CC4)cn3)CC2)cc1C(F)(F)F (stereo partly drawn)")
"93%"
>>> result("N#Cc1ccc(N2CCC(C(=O)Nc3ccc(N4CCC(CN5CCC(COc6ccc7c(c6)C(=O)N(C6CCC(=O)NC6=O)C7=O)CC5)CC4)cn3)CC2)cc1C(F)(F)F (stereo not drawn)")
"96%"
>>> result("N#Cc1ccc(N2CCC(C(=O)Nc3ccc(OCCN4CCN(CC(=O)Nc5cccc(NC6CCC(=O)NC6=O)c5)CC4)cn3)CC2)cc1C(F)(F)F (stereo not drawn)")
"-22%"
>>> result("N#Cc1ncc(N2CCC(C(=O)Nc3ccc(N4CCC(CN5CCN(CC6CCN(c7ccc8c(c7)CN(C7CCC(=O)NC7=O)C8=O)CC6)CC5)CC4)cn3)CC2)cc1C(F)(F)F (stereo not drawn)")
"84%"
>>> result("CN(CC1CCN(c2ccc(NC(=O)C3CCN(c4ccc(C#N)c(C(F)(F)F)c4)CC3)nc2)CC1)CC1CCN(c2ccc3c(c2)C(=O)N(C2CCC(=O)NC2=O)C3=O)CC1 (stereo not drawn)")
"89%"
>>> result("N#Cc1ccc(N2CCN(C(=O)Nc3ccc(N4CCC(CN5CC6(CCN(c7ccc8c(c7)C(=O)N(C7CCC(=O)NC7=O)C8=O)CC6)C5)CC4)nc3)CC2)cc1C(F)(F)F (stereo not drawn)")
"15%"
>>> result("C[C@@H]1CN(CC2CN(c3ccc4c(c3)C(=O)N(C3CCC(=O)NC3=O)C4=O)C2)CCN1CC1CN(c2ccc(NC(=O)C3CCN(c4ccc(C#N)c(C(F)(F)F)c4)CC3)nc2)C1 (stereo partly drawn)")
"99%"
>>> result("N#Cc1ccc(N2CCC(C(=O)Nc3ccc(N4CC(CN5CCN(C6CN(c7ccc8c(c7)C(=O)N(C7CCC(=O)NC7=O)C8=O)C6)CC5)C4)cn3)CC2)cc1C(F)(F)F (stereo not drawn)")
"94%"
>>> result("N#Cc1ccc(N2CCC(C(=O)Nc3ccc(OCCN4CCC(Oc5ccc6c(c5)C(=O)N(C5CCC(=O)NC5=O)C6=O)CC4)cn3)CC2)cc1C(F)(F)F (stereo not drawn)")
"64%"
>>> result("N#Cc1ccc(N2CCC(C(=O)Nc3ccc(N4CCC(CN5CCN(CC6CCN(c7ccc(C(=O)NC8CCC(=O)NC8=O)nc7)CC6)CC5)CC4)cn3)CC2)cc1C(F)(F)F (stereo not drawn)")
"86%"
>>> result("N#Cc1ccc(N2CCC(C(=O)Nc3ccc(N4CCC(CN5CCN(CC(=O)Nc6cccc(NC7CCC(=O)NC7=O)c6)CC5)CC4)cn3)CC2)cc1C(F)(F)F (stereo not drawn)")
"37%"
